# tested_system: ALDH2 (Homo sapiens (Human), UniProt P05091)
# Sequence (P05091 18-517): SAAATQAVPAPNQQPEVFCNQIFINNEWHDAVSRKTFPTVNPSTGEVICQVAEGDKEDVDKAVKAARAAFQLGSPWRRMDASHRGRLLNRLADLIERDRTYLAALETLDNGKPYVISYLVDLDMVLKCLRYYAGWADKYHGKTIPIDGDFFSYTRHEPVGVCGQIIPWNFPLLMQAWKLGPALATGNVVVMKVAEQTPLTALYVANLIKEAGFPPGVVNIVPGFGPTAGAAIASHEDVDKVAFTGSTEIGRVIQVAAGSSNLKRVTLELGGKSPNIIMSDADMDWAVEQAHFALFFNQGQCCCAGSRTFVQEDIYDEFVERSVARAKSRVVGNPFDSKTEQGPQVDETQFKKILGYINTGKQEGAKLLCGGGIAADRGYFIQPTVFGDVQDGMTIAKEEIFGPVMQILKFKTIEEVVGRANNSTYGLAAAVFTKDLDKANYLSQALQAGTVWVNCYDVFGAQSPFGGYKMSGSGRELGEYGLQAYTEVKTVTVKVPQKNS
# assay_details: ALDH assay (diaphorase/resazurin), ALDH2 inhibition
# Format: biochemical
# recorded_conditions: Table III
readout_label: Aldh2 (IC50, μM) ± SE

Past entries and their recorded results:
1. CCN(Cc1ccc(OC)cc1)C(=S)SSC(=S)N(CC)Cc1ccc(OC)cc1
No inhibition
2. CCN(Cc1ccc(C(F)(F)F)cc1)C(=S)SSC(=S)N(CC)Cc1ccc(C(F)(F)F)cc1 [III-1n]
No inhibition
3. CCN(Cc1ccncc1)C(=S)SSC(=S)N(CC)Cc1ccncc1 [III-2o]
No inhibition
4. CCN(Cc1ccsc1)C(=S)SSC(=S)N(CC)Cc1ccsc1 [III-2r]
No inhibition

Note: attention shifts to another entry.
Task: Query (compound): CCN(Cc1cccs1)C(=S)SSC(=S)N(CC)Cc1cccs1 [III-2q] ; field requested: Aldh2 (IC50, μM) ± SE
Result: No inhibition

Reference source: patent US20250145565A1
